# inhibition per record follows
target_entity: Mannose-6-phosphate isomerase (Homo sapiens) (UniProt P34949)
Sequence (P34949 whole entry, looked up): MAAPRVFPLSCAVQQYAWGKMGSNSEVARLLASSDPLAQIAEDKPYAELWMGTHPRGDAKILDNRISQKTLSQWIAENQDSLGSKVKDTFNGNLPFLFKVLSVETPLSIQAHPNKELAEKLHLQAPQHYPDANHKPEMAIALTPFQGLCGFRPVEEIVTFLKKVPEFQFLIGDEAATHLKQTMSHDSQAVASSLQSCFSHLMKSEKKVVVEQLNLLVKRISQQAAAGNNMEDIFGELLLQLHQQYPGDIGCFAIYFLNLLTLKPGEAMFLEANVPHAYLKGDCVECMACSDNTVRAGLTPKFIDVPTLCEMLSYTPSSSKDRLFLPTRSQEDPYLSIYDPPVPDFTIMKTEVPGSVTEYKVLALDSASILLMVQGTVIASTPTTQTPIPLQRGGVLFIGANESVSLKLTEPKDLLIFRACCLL
assay: MPI inhibition at elevated mannose 6-phosphate – biochemical, fluorescence intensity, high mannose 6-phosphate, primary screen (AID 1220)
assay_setup: recombinant PMI enzyme, coupled fluorescence intensity; at 20 µM; active compounds read high
Among all 190,000 compounds or so, about 1,300 (0.68%) were called active. The full list was thinned out, with actives kept by preference.
Your answer is read as %, so omit the unit and give the number.

compound | inhibition / %
Cc1ccc(-n2nc(C(=O)O)c3ccccc3c2=O)cc1C | -1.7
COc1ccc(/C=N/NC(=O)c2nn(-c3ccc(Cl)cc3)c(=O)c3c(N)scc23)cc1 | 41.9
CC1(C)CC2CC(C)(CN2CC(=O)C(C#N)c2ccccc2)C1 (configuration not stated) | -41
CCOC(=O)c1nn(-c2ccc(F)cc2)c(=O)c2c(N)scc12 | 62.3
Nc1ccc(N2CCOCC2)c2nonc12 | 57
CC1(C)CC2CC(C)(CN2C(=O)COc2cccc3ccccc23)C1 (configuration not stated) | 2.7

Q: Which inhibition is reported for this compound? O=C1C=CC2C(c3ccc4c(c3)OCO4)CC1N2Cc1ccccc1 (configuration not stated)
A: 63.6

Q: Quick one: Nc1c(N2CCCC2)cc(Cl)c2nonc12
A: 55.1
